target: Prostaglandin G/H synthase 2 (Mus musculus); assay: Inhibition of COX2 in LPS-stimulated mouse J774 cells assessed as inhibition of PGE2 production and measured after 24 hrs by enzyme immuno-assay (EIA)
Sequence (Q05769 whole entry): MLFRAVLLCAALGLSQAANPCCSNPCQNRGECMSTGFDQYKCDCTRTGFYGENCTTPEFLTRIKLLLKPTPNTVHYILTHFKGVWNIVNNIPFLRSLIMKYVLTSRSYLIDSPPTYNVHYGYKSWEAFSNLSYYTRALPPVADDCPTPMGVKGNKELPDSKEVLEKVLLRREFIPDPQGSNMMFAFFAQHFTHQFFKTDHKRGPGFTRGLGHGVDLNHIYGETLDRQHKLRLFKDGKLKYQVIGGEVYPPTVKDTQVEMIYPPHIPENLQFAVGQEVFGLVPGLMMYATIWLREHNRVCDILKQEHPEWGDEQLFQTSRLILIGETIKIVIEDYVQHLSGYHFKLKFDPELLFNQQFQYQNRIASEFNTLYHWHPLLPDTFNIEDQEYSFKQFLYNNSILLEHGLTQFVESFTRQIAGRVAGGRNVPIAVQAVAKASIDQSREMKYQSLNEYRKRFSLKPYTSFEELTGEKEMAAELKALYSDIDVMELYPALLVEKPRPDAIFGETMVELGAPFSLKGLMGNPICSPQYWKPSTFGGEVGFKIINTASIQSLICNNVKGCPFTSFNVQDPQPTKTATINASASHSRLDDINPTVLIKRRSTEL
Measured Parameter: log10(IC50) (log10 of the value in nM)
log10 IC50, nM

Cc1c(CC[S+]([O-])CCO[N+](=O)[O-])cc(-c2ccc(S(C)(=O)=O)cc2)n1-c1ccc(F)cc1 (stereo not drawn) ... 0.70

Which measured log10(IC50) belongs to Cc1c(CC[S+]([O-])CCO[N+](=O)[O-])cc(-c2ccc(S(C)(=O)=O)cc2)n1-c1ccccc1 (stereo not drawn) , tested on Prostaglandin G/H synthase 2 (Mus musculus)?
1.87

Which measured log10(IC50) belongs to Cc1c(CC[S+]([O-])CCO)cc(-c2ccc(S(C)(=O)=O)cc2)n1-c1ccc(F)cc1 (stereo not drawn) , tested on Prostaglandin G/H synthase 2 (Mus musculus)?
2.96

Which measured log10(IC50) belongs to `Cc1c(CCSCCO[N+](=O)[O-])cc(-c2ccc(S(C)(=O)=O)cc2)n1-c1ccccc1` , tested on Prostaglandin G/H synthase 2 (Mus musculus)?
1.46

Which measured log10(IC50) belongs to `Cc1c(CCSCCO)cc(-c2ccc(S(C)(=O)=O)cc2)n1-c1ccc(F)cc1` , tested on Prostaglandin G/H synthase 2 (Mus musculus)?
0.90

Which measured log10(IC50) belongs to `Cc1c(CCSCCO)cc(-c2ccc(S(C)(=O)=O)cc2)n1-c1ccccc1` , tested on Prostaglandin G/H synthase 2 (Mus musculus)?
1.40

Which measured log10(IC50) belongs to Cc1c(CC[S+]([O-])CCO)cc(-c2ccc(S(C)(=O)=O)cc2)n1-c1ccccc1 (stereo not drawn) , tested on Prostaglandin G/H synthase 2 (Mus musculus)?
2.51

Which measured log10(IC50) belongs to `Cc1c(CCSCCO)cc(-c2ccc(S(C)(=O)=O)cc2)n1-c1ccc(F)c(F)c1` , tested on Prostaglandin G/H synthase 2 (Mus musculus)?
1.23

----------
Catalogue of log10 microsomal CLint at 1 µM readings, one per entry.
experiment: Intrinsic clearance in mouse liver microsomes at 1 uM preincubated for 10 mins and measured up to 60 mins by LC-MS/MS analysis; assay type: ADME, Microsome; details: read-out: CLH
log10 microsomal CLint at 1 µM, µL/min/mg

Worked examples, 4 compounds total:
Cc1c(CC[S+]([O-])CCO[N+](=O)[O-])cc(-c2ccc(S(C)(=O)=O)cc2)n1-c1ccc(F)cc1 (stereo not given) ... 1.61
Cc1c(CCSCCO[N+](=O)[O-])cc(-c2ccc(S(C)(=O)=O)cc2)n1-c1ccc(F)cc1 ... 1.79
CCOc1ccc2ccc(=O)oc2c1 ... 2.47
Cc1c(CC[S+]([O-])CCO)cc(-c2ccc(S(C)(=O)=O)cc2)n1-c1ccc(F)cc1 (stereo not given) ... 0.99

Continue with the next compound.
Which log10 microsomal CLint at 1 µM is listed for `Cc1c(CCSCCO)cc(-c2ccc(S(C)(=O)=O)cc2)n1-c1ccc(F)cc1` ?
1.86

----------
test: Intrinsic clearance in human liver microsomes at 1 uM preincubated for 10 mins and measured up to 60 mins by LC-MS/MS analysis; assay type: ADME, Microsome; settings: read-out: CLH
Measured Parameter: microsomal CLint at 1 µM (µL/min/mg)
Record the value in µL/min/mg, omitting the unit from your answer.

Worked examples, 4 compounds total:
Cc1c(CCSCCO)cc(-c2ccc(S(C)(=O)=O)cc2)n1-c1ccc(F)cc1 ... 39.2
Cc1c(CC[S+]([O-])CCO[N+](=O)[O-])cc(-c2ccc(S(C)(=O)=O)cc2)n1-c1ccc(F)cc1 (stereo not given) ... 39.9
CCOc1ccc2ccc(=O)oc2c1 ... 113
Cc1c(CC[S+]([O-])CCO)cc(-c2ccc(S(C)(=O)=O)cc2)n1-c1ccc(F)cc1 (stereo not given) ... 3.2

Continue with the next compound.
Which microsomal CLint at 1 µM is listed for `Cc1c(CCSCCO[N+](=O)[O-])cc(-c2ccc(S(C)(=O)=O)cc2)n1-c1ccc(F)cc1` ?
132

Values compiled from ChEMBL document CHEMBL5104161.
